Data origin, for the record: ChEMBL document CHEMBL1772971

ASSAY PROCEDURE: Displacement of [125I]IMPY from amyloid beta (1 to 42) after 3 hrs by gamma counting
Binary label based on Ki with cut-off 2 nM: below gives rule met, not below gives rule not met.

# input Please indicate whether the reported Ki of CNc1ccc(-c2nc3ccc(O)cc3s2)cc1 [PITTSBURGH COMPOUND B UNLABELLED] is strictly below 2 nM.
# output rule not met

# input Please indicate whether the reported Ki of CN(C)c1ccc(-c2cc3cc(OCCOCCOCCF)ccc3o2)cn1 is strictly below 2 nM.
# output rule met

# input Please indicate whether the reported Ki of CNc1ccc(-c2cc3cc(OCCOCCOCCF)ccc3o2)cn1 is strictly below 2 nM.
# output rule not met

# input Please indicate whether the reported Ki of CNc1ccc(-c2cc3cc(OCCOCCOCCF)ccc3o2)cc1 is strictly below 2 nM.
# output rule not met
